Provenance of the data: patent US20210079109A1

molecular target: T1, recombinant human CD63 extracellular loop 2 expressed with a C-terminal Myc-Myc-hexahistidine (human); experiment: SPR Biacore, mAb captured, 37C
T1 construct: also called hCD63 EC loop 2-MMH; human CD63 EC loop 2-MMH
T1 sequence (chain, as listed by the source limits assumed): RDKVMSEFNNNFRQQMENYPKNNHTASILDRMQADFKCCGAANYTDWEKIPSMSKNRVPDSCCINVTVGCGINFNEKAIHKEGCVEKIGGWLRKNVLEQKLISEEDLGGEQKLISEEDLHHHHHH
measurementName: koff (s⁻¹)
State the answer as a number, implicitly in s⁻¹.

[Q] Bench note: what koff did H1M12388N (antibody, V domains shown) VH: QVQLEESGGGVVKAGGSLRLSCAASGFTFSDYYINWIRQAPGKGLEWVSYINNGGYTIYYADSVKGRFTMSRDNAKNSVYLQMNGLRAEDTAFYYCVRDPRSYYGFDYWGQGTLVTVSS VL: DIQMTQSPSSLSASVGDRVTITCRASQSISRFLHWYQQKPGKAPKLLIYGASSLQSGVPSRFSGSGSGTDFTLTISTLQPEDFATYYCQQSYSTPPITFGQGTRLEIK show?
[A] 0.00327

[Q] Also check H1M12362N (antibody, V domains shown) VH: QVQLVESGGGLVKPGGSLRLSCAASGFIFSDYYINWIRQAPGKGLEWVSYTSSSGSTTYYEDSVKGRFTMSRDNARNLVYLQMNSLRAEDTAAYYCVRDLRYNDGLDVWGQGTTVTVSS VL: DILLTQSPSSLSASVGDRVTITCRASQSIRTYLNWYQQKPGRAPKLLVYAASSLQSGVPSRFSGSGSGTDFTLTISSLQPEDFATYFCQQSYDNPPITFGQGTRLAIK
[A] 0.0072

[Q] Also check H2M12385N (antibody, V domains shown, also called H2bM12385N; H2bM12385) VH: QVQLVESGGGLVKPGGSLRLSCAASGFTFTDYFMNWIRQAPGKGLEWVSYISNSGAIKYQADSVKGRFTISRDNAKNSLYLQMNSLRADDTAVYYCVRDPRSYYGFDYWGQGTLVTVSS VL: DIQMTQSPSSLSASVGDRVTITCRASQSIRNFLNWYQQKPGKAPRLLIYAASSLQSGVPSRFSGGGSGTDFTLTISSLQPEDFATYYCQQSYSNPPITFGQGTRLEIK
[A] 0.0109
